molecular target: human glucagon receptor (human, UniProt P47871 26-477); assay: cell-based or functional assay
Sequence (P47871 26-477): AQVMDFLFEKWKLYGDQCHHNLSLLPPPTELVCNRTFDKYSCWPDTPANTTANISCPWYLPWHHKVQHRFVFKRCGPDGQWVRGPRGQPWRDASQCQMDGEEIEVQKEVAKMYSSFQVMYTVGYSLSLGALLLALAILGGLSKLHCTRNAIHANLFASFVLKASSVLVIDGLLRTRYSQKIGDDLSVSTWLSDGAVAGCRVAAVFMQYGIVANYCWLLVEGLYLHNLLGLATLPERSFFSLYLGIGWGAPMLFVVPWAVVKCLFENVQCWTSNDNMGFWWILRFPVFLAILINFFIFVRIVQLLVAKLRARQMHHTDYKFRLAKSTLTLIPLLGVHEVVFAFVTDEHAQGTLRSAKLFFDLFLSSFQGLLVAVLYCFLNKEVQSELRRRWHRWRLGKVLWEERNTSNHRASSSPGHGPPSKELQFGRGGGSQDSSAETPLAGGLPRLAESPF
Positions of bridges follow the written chain, without caps; N, C: chain ends. Non-standard residues stand in square brackets, D forms with d. No end group written: not given here. Aib = CC(C)(N)C(=O)O
The entries below are paired with their reported In vitro Activity (Relative Activity of SEQ ID NO: 1, %), from cAMP EC50.

Some binders with known In vitro Activity (Relative Activity of SEQ ID NO: 1, %), from cAMP EC50 results, for comparison:
# binder, reported.measurement
records = [
    ("W[Aib]QGTFVSDYSKYLDECRAKDFVQWLMNT (bridge 16-20; also: ring between positions 16 and 20, kind not given here) [glucagon derivative of SEQ ID NO: 28]", "< 0.1%"),
    ("HSQGTFTSDYSKYLDSCEADDFVQWLMNT [glucagon derivative of SEQ ID NO: 6]", "< 0.1%"),
    ("Y[Aib]QGTFTSDYSKYLDSRRACDFRLWLMNT [glucagon derivative of SEQ ID NO: 18]", "< 0.1%"),
]

Identify measured In vitro Activity (Relative Activity of SEQ ID NO: 1, %), from cAMP EC50 corresponding to Y[Aib]QGTFTSDYSKYLDEKRAKCFVQWLMNT (bridge 16-20; also: ring between positions 16 and 20, kind not given here) [glucagon derivative of SEQ ID NO: 25]
46.9%

Identify measured In vitro Activity (Relative Activity of SEQ ID NO: 1, %), from cAMP EC50 corresponding to Y[Aib]QGTFTSDYSKCLDEKRAKEFVQWLMNT (bridge 16-20; also: ring between positions 16 and 20, kind not given here) [glucagon derivative of SEQ ID NO: 24]
58%

Identify measured In vitro Activity (Relative Activity of SEQ ID NO: 1, %), from cAMP EC50 corresponding to Y[Aib]QGTFTSDCSKYLDERRAKEFVQWLMNT (bridge 16-20; also: ring between positions 16 and 20, kind not given here) [glucagon derivative of SEQ ID NO: 36]
9.9%

Identify measured In vitro Activity (Relative Activity of SEQ ID NO: 1, %), from cAMP EC50 corresponding to Y[Aib]QGTFTSDYSKYLDEKRCKEFVQWLMNT (bridge 16-20; also: ring between positions 16 and 20, kind not given here) [glucagon derivative of SEQ ID NO: 22]
148%
